// provenance: ChEMBL document CHEMBL2086223

Species: Homo sapiens
PROTOCOL DESCRIPTION: Selectivity ratio of Ki for human 5HT3A receptor to Ki for human 5HT4c receptor
PARAMETER: Ratio Ki
Number only, please.

Consider the molecule CC(=O)N1CCN(CCN2[C@@H]3CC[C@H]2C[C@@H](NC(=O)c2nn(C(C)C)c4ccccc24)C3)CC1 . State its measured Ratio Ki.
980

Read the entry CCCCCNC(=N)N/N=C/c1c[nH]c2ccc(OC)cc12 [TEGASEROD] and write its reported Ratio Ki.
580

Next:
Report measured Ratio Ki; entry is CC(C)n1c(=O)c(C(=O)N[C@H]2C[C@H]3CC[C@@H](C2)N3C[C@@H](O)CN2CCN(S(C)(=O)=O)CC2)cc2ccccc21
7400
